Biological target: IRAK4 (Homo sapiens (Human), UniProt Q9NWZ3)
Sequence (Q9NWZ3 whole entry): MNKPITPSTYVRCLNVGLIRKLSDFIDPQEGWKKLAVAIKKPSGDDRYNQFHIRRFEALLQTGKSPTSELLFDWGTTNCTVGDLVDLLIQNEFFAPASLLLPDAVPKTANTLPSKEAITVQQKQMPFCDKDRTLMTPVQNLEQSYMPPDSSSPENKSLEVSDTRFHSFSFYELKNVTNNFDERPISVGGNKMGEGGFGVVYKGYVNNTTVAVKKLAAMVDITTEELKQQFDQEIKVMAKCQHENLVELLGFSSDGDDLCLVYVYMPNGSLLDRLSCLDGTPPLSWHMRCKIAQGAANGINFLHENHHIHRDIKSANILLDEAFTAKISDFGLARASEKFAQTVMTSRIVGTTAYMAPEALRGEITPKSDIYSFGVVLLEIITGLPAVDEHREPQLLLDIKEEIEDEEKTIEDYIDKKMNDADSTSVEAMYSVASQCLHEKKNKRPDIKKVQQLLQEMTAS
pIC50: −log10 of the molar value.
Assay metric: pIC50

Reference set (6 entries):
OC1CCCC(c2ccc3ncnc(N[C@H]4CC[C@H](N5CCOCC5)CC4)c3c2)C1 (single isomer, unassigned) [Example 4-1] :: 7.41
Fc1cc2ncnc(N[C@H]3CC[C@H](N4CCOCC4)CC3)c2cc1C1CC1 :: 7.92
OC1CCCC(c2ccc3ncnc(N[C@H]4CC[C@H](N5CCOCC5)CC4)c3c2)C1 (some centres unmarked) [Example 4-2] :: 7.26
OC1CCCC(c2ccc3ncnc(N[C@H]4CC[C@H](N5CCOCC5)CC4)c3c2)C1 (single isomer, unassigned) [Example 4-3] :: 7.96
Cc1c(C2CC2)ccc2ncnc(N[C@H]3CC[C@H](N4CCOCC4)CC3)c12 :: 6.46
c1nc(N[C@H]2CC[C@H](N3CCOCC3)CC2)c2cc(C3CCC3)ccc2n1 :: 8.52

(1) c1nc(N[C@H]2CC[C@H](N3CCOCC3)CC2)c2cc(C3CCCOC3)ccc2n1 (some centres unmarked)
(2) FC1(F)CCC(c2ccc3ncnc(N[C@H]4CC[C@H](N5CCOCC5)CC4)c3c2)CC1
Problem: Of 1 and 2 , which one carries the higher reported pIC50? Field: selected label. Fill in the label of the entry you choose.
Result: 1
